Tested on: Vero cells
experimental_details: Cell viability, CellTiter 96 assay, Vero
test_context: 24 h treatment

{"input_smiles": "COc1cc2cc(c1Cl)N(C)C(=O)C[C@H](OC(=O)[C@H](C)N(C)C(C)=O)[C@]1(C)O[C@H]1[C@H](C)[C@@H]1C[C@@](O)(NC(=O)O1)[C@H](OC)/C=C/C=C(\\C)C2", "highest non-toxic concentration, nM": 25}
{"input_smiles": "COc1cc2c(c(OC)c1OC)-c1ccc(OC)c(=O)cc1[C@@H](NC(C)=O)CC2", "highest non-toxic concentration, nM": 75}
{"input_smiles": "CCCSc1ccc2nc(NC(=O)OC)[nH]c2c1", "highest non-toxic concentration, nM": 25}
{"input_smiles": "CC(C)(C)c1[nH]cnc1/C=c1\\[nH]c(=O)/c(=C/c2ccccc2)[nH]c1=O", "highest non-toxic concentration, nM": 25}
{"input_smiles": "CO[C@H]1C(=O)[C@]2(C)[C@@H](OC)C[C@H]3OC[C@@]3(OC(C)=O)[C@H]2[C@H](OC(=O)c2ccccc2)[C@]2(O)C[C@H](OC(=O)[C@H](O)[C@@H](NC(=O)OC(C)(C)C)c3ccccc3)C(C)=C1C2(C)C", "highest non-toxic concentration, nM": 10}
{"input_smiles": "CC(=O)O[C@@]12CO[C@@H]1C[C@H](O)[C@@]1(C)C(=O)[C@H](O)C3=C(C)[C@@H](OC(=O)[C@H](O)[C@@H](NC(=O)OC(C)(C)C)c4ccccc4)C[C@@](O)([C@@H](OC(=O)c4ccccc4)[C@H]21)C3(C)C", "highest non-toxic concentration, nM": 10}
{"input_smiles": "COc1cc([C@@H]2c3cc4c(cc3[C@H](O)[C@H]3COC(=O)[C@H]23)OCO4)cc(OC)c1OC", "highest non-toxic concentration, nM": 50}

* * *

Test system: Vero cells
test_context: African green monkey, 24 h
Each item that follows carries a reported highest non-toxic concentration.
readout_name: highest non-toxic concentration (nM)

{"compound": "C=C1C[C@@H]2CC[C@@]34C[C@H]5O[C@H]6[C@@H](O3)[C@H]3O[C@H](CC[C@@H]3O[C@H]6[C@H]5O4)CC(=O)C[C@@H]3[C@@H](OC)[C@@H](C[C@H](O)CN)O[C@H]3C[C@H]3O[C@@H](CC[C@@H]1O2)C[C@@H](C)C3=C [ERIB, eribulin]", "measurement_target": "Vero cells", "readout_name": "highest non-toxic concentration", "recorded_value": 100}
{"compound": "COc1ccc2c(c1OC)C(=O)O[C@@H]2[C@H]1c2c(cc3c(c2OC)OCO3)CCN1C [NOS, noscapine]", "measurement_target": "Vero cells", "readout_name": "highest non-toxic concentration", "recorded_value": 100}
{"compound": "CC[C@]1(O)C[C@H]2CN(CCc3c([nH]c4ccccc34)[C@@](C(=O)OC)(c3cc4c(cc3OC)N(C=O)[C@H]3[C@@](O)(C(=O)OC)[C@H](OC(C)=O)[C@]5(CC)C=CCN6CC[C@]43[C@@H]65)C2)C1 [VCR, vincristine]", "measurement_target": "Vero cells", "readout_name": "highest non-toxic concentration", "recorded_value": 1}

* * *

Test system: ASFV BPP30GFP
Format: cell-based, African swine fever virus
readout_name: inhibition of ASFV early infection (BPP30GFP)

{"input_smiles": "C=C1C[C@@H]2CC[C@@]34C[C@H]5O[C@H]6[C@@H](O3)[C@H]3O[C@H](CC[C@@H]3O[C@H]6[C@H]5O4)CC(=O)C[C@@H]3[C@@H](OC)[C@@H](C[C@H](O)CN)O[C@H]3C[C@H]3O[C@@H](CC[C@@H]1O2)C[C@@H](C)C3=C", "recorded_value": "up to 50%"}
{"input_smiles": "CC[C@]1(O)C[C@@H]2CN(CCc3c([nH]c4ccccc34)[C@@](C(=O)OC)(c3cc4c(cc3OC)N(C)[C@H]3[C@@](O)(C(=O)OC)[C@H](OC(C)=O)[C@]5(CC)C=CCN6CC[C@]43[C@@H]65)C2)C1", "recorded_value": "up to 50%"}
{"input_smiles": "CC[C@]1(O)C[C@@H]2CN(CCc3c([nH]c4ccccc34)[C@@](C(=O)OC)(c3cc4c(cc3OC)N(C)[C@H]3[C@@](O)(C(N)=O)[C@H](O)[C@]5(CC)C=CCN6CC[C@]43[C@@H]65)C2)C1", "recorded_value": "up to 50%"}
